- System: U251 CNS
- test.details: NCI-60 one-dose screen, 48 h
- condition.parameters: 10 µM unless noted
- Experimental: Growth inhibition of the U251 human tumor cell line is measured as a screen for anti-cancer activity. Cells are grown in 96 well plates and exposed to the test compound for 48 hours. Compounds are tested at a single concentration, which is 10^-5 M for most compounds. The reported endpoint is percent growth (GI% or GIPRCNT), where numbers from 0 - 100% represent growth inhibition, and numbers from -100% - 0 represent cell death. For example, a value of 40 represents 60% growth inhibition. […]
About 83,000 compounds went through this panel and 20% of them were active in at least one assay; those are over-represented in the sample as a whole. Activity calls are given as the source filed them. The calls were made as follows: active = growth percent below 10; inactive = the rest.
Classes used: yes (1) (active), no (0) (inactive)

| chemical.smiles | assigned.label |
| --- | --- |
| COc1cc(-c2nc(SCCC(C)C)nc(Nc3ccccc3)c2C#N)cc(OC)c1OC | no (0) |
| Ic1ccc2[nH]cc(SSc3c[nH]c4ccc(I)cc34)c2c1 | no (0) |
| COc1cc(Cl)cc(-c2nn(C(=O)NS(=O)(=O)c3ccccc3)cc2-c2ccncc2)c1 | no (0) |
| Cn1cc(-c2nnc(-c3cn(C)c4ncccc34)s2)c2ccccc21 | no (0) |
| O=C(CCNCc1ccccc1)c1ccccc1 | no (0) |
| COc1ccc2[nH]c(C(=O)N3CCN(C(=O)OCc4ccc5c(Br)cc(Br)c(O)c5n4)CC3)cc2c1 | yes (1) |
| O=C(Nc1ccc(C(=O)/C=C/c2ccc(N3CCOCC3)cc2)cc1)Nc1ccc([N+](=O)[O-])cc1 | no (0) |
| COc1ccc(/C=C/C(=C/c2c(O)[nH]c3cc(Br)ccc23)N=O)cc1 | no (0) |
| CCCCCCCCCCCCCCNC(=O)Nc1ccc(Cl)c(Cl)c1 | no (0) |
| O=C(CCCSc1nc(-c2ccccc2)cc(-c2ccccc2)n1)NO | yes (1) |
